Human PKG (10 μm) values for the compounds below.
# Test system: human PKG (hPKG)
# ASSAY NAME: Human PKG IMAP fluorescence polarization kinase assay
# Type: biochemical
# ASSAY CONTEXT: compound at 10 μm; recombinant hPKG, 10 uM ATP, 1 uM cGMP, FAM-IP3R substrate
Give your answer as a number; write no unit.

INSERT INTO results (compound, value_reported) VALUES
  ('CN1CCC(c2cc(-c3ccncc3)c(-c3ccc(F)cc3)[nH]2)CC1 [TSP, reference compound]', 59),
  ('CN1CCC(c2cc(-c3ccnc(C#N)c3)c(-c3ccc(F)cc3)[nH]2)CC1', 16),
  ('CCOC(=O)c1c(C2CCN(C)CC2)[nH]c(-c2ccc(F)cc2)c1-c1ccncc1', 18);

Can you share its Human PKG (10 μm)? I mean this compound: `Cc1cc(-c2cc(C3CCN(C)CC3)[nH]c2-c2ccc(F)cc2)ccn1`
30

Can you share its Human PKG (10 μm)? I mean this compound: C[C@H]1C[C@@H](c2cc(-c3ccncc3)c(-c3ccc(F)cc3)[nH]2)CCN1C (single isomer, unassigned)
26

Can you share its Human PKG (10 μm)? I mean this compound: `CN1CCC(c2cc(-c3ccncc3C(N)=O)c(-c3ccc(F)cc3)[nH]2)CC1`
−2
